target: ACVR2A on primary human myotubes (human, UniProt P27037 20-513); assay: cell-based or functional assay
Sequence (P27037 20-513): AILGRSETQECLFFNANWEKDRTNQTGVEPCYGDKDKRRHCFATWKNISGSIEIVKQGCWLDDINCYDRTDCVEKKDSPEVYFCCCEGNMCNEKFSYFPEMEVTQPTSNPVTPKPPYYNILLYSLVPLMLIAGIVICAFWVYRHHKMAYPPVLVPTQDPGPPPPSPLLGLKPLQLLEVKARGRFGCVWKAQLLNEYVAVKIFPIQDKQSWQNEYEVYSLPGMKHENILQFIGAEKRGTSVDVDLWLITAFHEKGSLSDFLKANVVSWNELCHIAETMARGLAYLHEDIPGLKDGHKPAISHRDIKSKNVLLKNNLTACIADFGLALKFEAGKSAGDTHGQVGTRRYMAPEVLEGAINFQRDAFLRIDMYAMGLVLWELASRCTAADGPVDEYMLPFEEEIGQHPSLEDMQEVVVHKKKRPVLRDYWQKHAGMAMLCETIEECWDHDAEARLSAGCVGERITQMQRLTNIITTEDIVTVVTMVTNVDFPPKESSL
value type: Phospho-SMAD3 Human Skeletal Muscle GDF8
Numbers only.

Sample 366_B12 (antibody, V domains shown) VH: EVQLLESGGGLVQPGGSLRLSCAASGFTFSSYSMNWVRQAPGKGLEWVAGINYNSGYKGYADSVKGRFTISRDNSKNTLYLQMNSLRAEDTAVYYCARSANWHDTALDYWGQGTLVTVSS VL: DIQMTQSPSSLSASVGDRVTITCRASQSILTYVNWYQQKPGKAPKLLIYAATSRASGVPSRFSGSGSGTDFTLTISSLQPEDFATYYCQQSYDNPLTFGGGTKVEIK ; Phospho-SMAD3 Human Skeletal Muscle GDF8 observed: 0.0392
